Biological target: Adenosine receptor A1 (Cavia porcellus, UniProt P47745)
Sequence (P47745 whole entry): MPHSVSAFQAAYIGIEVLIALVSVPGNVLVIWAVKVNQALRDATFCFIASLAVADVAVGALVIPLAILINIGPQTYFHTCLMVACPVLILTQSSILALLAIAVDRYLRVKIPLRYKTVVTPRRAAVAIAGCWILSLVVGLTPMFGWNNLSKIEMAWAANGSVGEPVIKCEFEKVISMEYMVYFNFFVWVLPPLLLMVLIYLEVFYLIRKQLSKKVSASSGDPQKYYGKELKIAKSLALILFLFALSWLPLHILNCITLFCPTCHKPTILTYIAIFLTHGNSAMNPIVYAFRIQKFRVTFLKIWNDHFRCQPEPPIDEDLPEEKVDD
Test: Binding affinity against adenosine A1 receptor using [3H]CPX in guinea pig DDT membrane; 7292+/-3241
outcome_measure: pKi
Numbers only, as −log10 of the molar value.

Which pKi is reported for this molecule? Cc1cccc(Cl)c1SC[C@H]1OC(n2cnc3c(NC4CCOC4)ncnc32)[C@H](O)[C@@H]1O (stereo partly specified)
5.14
